Data origin: patent US20240383900A1

CDK7/CDK12 values for the molecules below.
Target: Human CDK12 wt/CycK (Homo sapiens (Human), UniProt Q9NYV4)
Sequence (Q9NYV4 whole entry): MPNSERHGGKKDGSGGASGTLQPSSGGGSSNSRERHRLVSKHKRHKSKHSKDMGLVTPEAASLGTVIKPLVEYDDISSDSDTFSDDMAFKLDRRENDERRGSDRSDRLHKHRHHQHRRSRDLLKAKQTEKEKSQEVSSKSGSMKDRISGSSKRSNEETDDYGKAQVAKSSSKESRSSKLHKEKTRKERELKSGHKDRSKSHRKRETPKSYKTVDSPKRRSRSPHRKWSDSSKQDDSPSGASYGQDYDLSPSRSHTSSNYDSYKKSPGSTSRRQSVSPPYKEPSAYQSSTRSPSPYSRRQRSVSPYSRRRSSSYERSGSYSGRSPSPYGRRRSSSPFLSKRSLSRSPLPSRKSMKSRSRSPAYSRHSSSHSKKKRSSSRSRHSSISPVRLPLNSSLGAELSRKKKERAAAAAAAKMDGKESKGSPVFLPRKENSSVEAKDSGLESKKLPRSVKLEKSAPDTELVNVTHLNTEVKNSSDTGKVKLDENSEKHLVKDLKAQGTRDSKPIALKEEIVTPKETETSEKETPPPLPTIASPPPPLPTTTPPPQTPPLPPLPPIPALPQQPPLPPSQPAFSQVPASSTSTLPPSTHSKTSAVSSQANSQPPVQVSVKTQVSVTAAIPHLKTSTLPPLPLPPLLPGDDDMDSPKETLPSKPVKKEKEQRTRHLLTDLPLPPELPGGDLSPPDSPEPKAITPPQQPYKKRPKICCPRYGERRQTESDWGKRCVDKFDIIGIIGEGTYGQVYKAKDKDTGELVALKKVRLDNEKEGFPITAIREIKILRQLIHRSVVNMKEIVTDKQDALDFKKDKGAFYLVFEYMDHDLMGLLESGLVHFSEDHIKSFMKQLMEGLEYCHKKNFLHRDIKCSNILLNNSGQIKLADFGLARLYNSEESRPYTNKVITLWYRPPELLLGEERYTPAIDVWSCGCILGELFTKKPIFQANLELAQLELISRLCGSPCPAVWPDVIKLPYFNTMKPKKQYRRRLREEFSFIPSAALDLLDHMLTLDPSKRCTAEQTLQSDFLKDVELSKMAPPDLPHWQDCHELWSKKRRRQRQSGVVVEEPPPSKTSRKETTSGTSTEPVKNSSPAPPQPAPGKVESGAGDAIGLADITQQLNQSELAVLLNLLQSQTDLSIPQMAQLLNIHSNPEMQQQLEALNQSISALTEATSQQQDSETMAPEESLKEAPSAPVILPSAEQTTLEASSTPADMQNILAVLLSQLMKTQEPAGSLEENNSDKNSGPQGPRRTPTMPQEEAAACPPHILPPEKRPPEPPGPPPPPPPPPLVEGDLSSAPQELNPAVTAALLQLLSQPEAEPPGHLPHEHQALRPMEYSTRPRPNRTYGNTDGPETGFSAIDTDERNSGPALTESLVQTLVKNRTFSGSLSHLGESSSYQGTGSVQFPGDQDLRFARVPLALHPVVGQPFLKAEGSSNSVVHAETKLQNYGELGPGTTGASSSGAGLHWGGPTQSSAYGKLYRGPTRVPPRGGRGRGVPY
Sequence (O75909 whole entry partner): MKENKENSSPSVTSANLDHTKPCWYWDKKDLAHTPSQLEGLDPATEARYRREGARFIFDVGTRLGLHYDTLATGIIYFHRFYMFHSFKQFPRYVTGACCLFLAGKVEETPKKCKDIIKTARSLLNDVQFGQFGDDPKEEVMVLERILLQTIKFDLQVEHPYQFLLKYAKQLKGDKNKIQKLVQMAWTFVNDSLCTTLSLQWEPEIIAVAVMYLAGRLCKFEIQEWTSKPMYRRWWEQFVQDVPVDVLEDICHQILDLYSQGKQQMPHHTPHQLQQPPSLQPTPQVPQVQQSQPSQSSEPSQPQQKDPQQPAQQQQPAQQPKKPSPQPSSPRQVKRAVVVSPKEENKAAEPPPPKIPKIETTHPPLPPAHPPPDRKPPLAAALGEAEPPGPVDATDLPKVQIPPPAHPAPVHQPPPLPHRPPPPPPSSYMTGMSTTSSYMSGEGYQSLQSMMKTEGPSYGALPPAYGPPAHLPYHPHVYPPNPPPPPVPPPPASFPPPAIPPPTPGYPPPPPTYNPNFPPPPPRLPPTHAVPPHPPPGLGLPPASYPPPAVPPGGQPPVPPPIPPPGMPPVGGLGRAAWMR
Test: Radiometric protein kinase assay (33PanQinase Activity Assay), CDK12
Assay type: biochemical
Conditions: ratio of CDK7 IC50 to CDK12 IC50; greater than 1 indicates selectivity for CDK12
quantityKind: CDK7/CDK12

[[record]]
molecule = "F[C@@H]1CNC[C@H]1Oc1cc(NCc2ccc(-c3ccccn3)cc2)n2ncc(C3CC3)c2n1 [PPA-073]"
testvalue = 16.0

[[record]]
molecule = "O[C@H]1CNCC[C@@H]1CNc1cc(NCc2ccc(-c3ccccn3)cc2F)n2ncc(Cl)c2n1 [PPA-074]"
testvalue = 15.2

[[record]]
molecule = "O=C1CC(CNc2cc(NCc3ccc(-c4ccccn4)cc3)n3ncc(C4CC4)c3n2)CCN1 (stereo not drawn) [PPA-051]"
testvalue = 16.9

[[record]]
molecule = "CC(=O)N1CCC(CNc2cc(NCc3ccc(-c4ccccn4)cc3)n3ncc(C4CC4)c3n2)CC1 [PPA-046]"
testvalue = ">8"

[[record]]
molecule = "O[C@H]1CNCC[C@@H]1CNc1cc(NCc2cc(F)c(-c3ccccn3)cn2)n2ncc(C3CC3)c2n1 [PPA-022]"
testvalue = 1.8

[[record]]
molecule = "CN(c1cc(NCc2ccc(-c3ccccn3)cc2)n2ncc(C3CC3)c2n1)C1CCNCC1 [PPA-039]"
testvalue = 12.4

